All values here come from BindingDB's records for PubMed 35814933.

biological target: Cyclin-dependent kinase 7 (Homo sapiens)
Sequence (P50613 whole entry): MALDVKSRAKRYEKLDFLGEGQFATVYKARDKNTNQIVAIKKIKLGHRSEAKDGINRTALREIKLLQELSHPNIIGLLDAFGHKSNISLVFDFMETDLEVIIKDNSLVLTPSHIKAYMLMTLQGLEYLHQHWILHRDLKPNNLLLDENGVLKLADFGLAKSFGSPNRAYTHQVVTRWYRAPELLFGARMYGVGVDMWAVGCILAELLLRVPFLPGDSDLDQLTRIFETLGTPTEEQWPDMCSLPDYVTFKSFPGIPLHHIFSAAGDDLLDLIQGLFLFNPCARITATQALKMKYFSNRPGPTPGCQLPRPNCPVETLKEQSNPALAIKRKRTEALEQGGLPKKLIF
measured-property: IC50 (nM)
One number for each entry, in nM.

query: Report IC50 from Cyclin-dependent kinase 7 (Homo sapiens) testing of CC[C@H](Nc1nc(NCc2cnc(C)cc2C)c2ncn(C(C)C)c2n1)[C@@H](C)O
result: 193

====

molecular target: Cyclin-dependent kinase 5 (Homo sapiens); experiment: Inhibition of CDK5 (unknown origin)
Sequence (Q00535 whole entry): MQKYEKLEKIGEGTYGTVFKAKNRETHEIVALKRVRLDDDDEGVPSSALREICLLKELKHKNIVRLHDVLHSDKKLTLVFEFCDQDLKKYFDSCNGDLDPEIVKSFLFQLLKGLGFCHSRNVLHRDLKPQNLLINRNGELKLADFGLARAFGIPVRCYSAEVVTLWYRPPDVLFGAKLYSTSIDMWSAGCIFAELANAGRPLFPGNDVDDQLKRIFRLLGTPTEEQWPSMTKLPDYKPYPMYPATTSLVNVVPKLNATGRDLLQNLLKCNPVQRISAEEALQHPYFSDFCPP
measured-property: IC50 (nM)
Numbers only, in nM.

query: Identify measured IC50 corresponding to CC[C@H](Nc1nc(NCc2cnc(C)cc2C)c2ncn(C(C)C)c2n1)[C@@H](C)O
result: 21
